# System: Mycobacterium tuberculosis
# METHOD_NOTES: Antituberculosis activity against Mycobacterium tuberculosis H37Rv assessed as inhibition of colony formation at 250 ug/ml after 4 weeks of incubation
# Assay type: functional
# EXPERIMENTAL_CONTEXT: 672 h
MEASURE: inhibition at 250 µg/mL (%)

>>> df
                                   molecule  unit_symbol  measured
0  Cc1nn(-c2ccccc2)c(Oc2ccc(F)cc2)c1C1CC(c2ccc(F)cc2)=NN1c1ccc(Br)cc1 (stereo not drawn)            %        96
1  COc1ccc(N2N=C(c3ccc(F)cc3)CC2c2c(C)nn(-c3ccccc3)c2Oc2ccc(F)cc2)cc1 (stereo not drawn)            %        74
2  COc1ccc(N2N=C(c3ccc(F)cc3)CC2c2c(C)nn(-c3ccccc3)c2Oc2cccc(C(F)(F)F)c2)cc1 (stereo not drawn)            %        52
3  Cc1nn(-c2ccccc2)c(Oc2ccc(F)cc2)c1C1CC(c2ccc(F)cc2)=NN1c1ccc(F)cc1 (stereo not drawn)            %        40
4  Cc1nn(-c2ccccc2)c(Oc2cccc(F)c2)c1C1CC(c2ccc(F)cc2)=NN1c1ccc(Br)cc1 (stereo not drawn)            %        56
5  Cc1nn(-c2ccccc2)c(Oc2cccc(C(F)(F)F)c2)c1C1CC(c2ccc(F)cc2)=NN1c1ccc(Br)cc1 (stereo not drawn)            %        91
6  COc1ccc(N2N=C(c3ccc(F)cc3)CC2c2c(C)nn(-c3ccccc3)c2Oc2cccc(F)c2)cc1 (stereo not drawn)            %        56
7  COc1ccc(N2N=C(c3ccc(F)cc3)CC2c2c(C)nn(-c3ccccc3)c2Oc2ccccc2F)cc1 (stereo not drawn)            %        22
